- Test system: SK-MEL-2 melanoma
- Protocol Summary: NCI tumour cell line growth inhibition, 48 h
Quantity: GI50

N#CCCN1C/C(=C/c2ccc(Br)cc2)C(=O)/C(=C/c2ccc(Br)cc2)C1 : 2.6 µM
COc1cc2c(Nc3cc(Cl)c(OC)c(Cl)c3)c(C#N)cnc2cc1OCCCN1CCN(C)CC1 : 1.32 µM
O=C1c2ccccc2-c2c1c1ccccc1c(=O)n2CCN1CCNCC1 : 12.7 µM

Ask | Look up GI50 for this molecule: CCCC/C(=C\C1=C(C)C(=O)C(OC)=C(OC)C1=O)C(=O)O
Reply | > 100 µM

Ask | Same question for O=C(/C(=C\c1c(-c2ccccc2)[nH]c2ccccc12)S(=O)(=O)c1ccccc1)c1ccccc1 please.
Reply | > 100 µM

Ask | Same question for O=C(NCc1ccc(Cn2c(=O)sn(-c3ccccc3)c2=O)cc1)OCc1ccc2cccc(O)c2n1 please.
Reply | 1.46 µM
